Target of assay: ScMyo5
Protocol text: SPOT peptide array binding signal intensity (averaged, normalized) (arbitrary units (background-subtracted, floor 0; scale differs between SH3 domains)); higher = stronger binding of the SH3 domain to the peptide
I would appreciate it if you labelled entries condition met when SPOT peptide array binding signal intensity is 4 or higher, otherwise condition not met.

Example results:
- Binder: "RRSKSLPTTPGIRSG"
  Group: "condition not met"
- Binder: "QQEQNTPPLPPKPKS"
  Group: "condition not met"
- Binder: "PLQSKIPMLPSRRTM"
  Group: "condition not met"
- Binder: "LLRRTIPKRPFYHVL"
  Group: "condition not met"

### Prompt Is SPOT peptide array binding signal intensity at least 4? Consider RKRRTHLRLPLIRSN
### Response condition not met

### Prompt Can FPGKKSPRLPHRNKK be said to have SPOT peptide array binding signal intensity at or above 4?
### Response condition not met

### Prompt Has RRTRLRPPTPLSQLL a recorded SPOT peptide array binding signal intensity greater than or equal to 4?
### Response condition met

### Prompt Reported SPOT peptide array binding signal intensity at or above 4? RFKRHRLEFPFNESE
### Response condition not met

### Prompt For this binder, is measured SPOT peptide array binding signal intensity 4 or higher? AAHKTKPSIPPKKVE
### Response condition not met

### Prompt Given QPPLPSSAPPIPTSH , state whether its SPOT peptide array binding signal intensity is at least 4.
### Response condition met

### Prompt Decide: SPOT peptide array binding signal intensity of IHTRRPSSTSQYLIR >= 4?
### Response condition met

### Prompt Is it the case that IKTRSVPKIPSIESV has SPOT peptide array binding signal intensity reaching or exceeding 4?
### Response condition met

### Prompt Decide: SPOT peptide array binding signal intensity of SRSKPLPLTPNSKYN >= 4?
### Response condition not met

### Prompt # bool: SPOT peptide array binding signal intensity of AATTSTPPLPRRRAT >= 4
### Response condition not met

### Prompt Given the entry LKPPIGRPPKFPKSP , answer whether its SPOT peptide array binding signal intensity meets or surpasses 4.
### Response condition met

### Prompt Item VYTRTAFQIPGDDKI with SPOT peptide array binding signal intensity of 4 or above?
### Response condition not met

### Prompt Item ISRRRLPVIMHRLKM with SPOT peptide array binding signal intensity of 4 or above?
### Response condition not met

### Prompt # check: SPOT peptide array binding signal intensity of QHQQRQPKRPKRYSL is greater than or equal to 4
### Response condition met
